Study target: PCSK9 (Homo sapiens)
Sequence (Q8NBP7 153-692): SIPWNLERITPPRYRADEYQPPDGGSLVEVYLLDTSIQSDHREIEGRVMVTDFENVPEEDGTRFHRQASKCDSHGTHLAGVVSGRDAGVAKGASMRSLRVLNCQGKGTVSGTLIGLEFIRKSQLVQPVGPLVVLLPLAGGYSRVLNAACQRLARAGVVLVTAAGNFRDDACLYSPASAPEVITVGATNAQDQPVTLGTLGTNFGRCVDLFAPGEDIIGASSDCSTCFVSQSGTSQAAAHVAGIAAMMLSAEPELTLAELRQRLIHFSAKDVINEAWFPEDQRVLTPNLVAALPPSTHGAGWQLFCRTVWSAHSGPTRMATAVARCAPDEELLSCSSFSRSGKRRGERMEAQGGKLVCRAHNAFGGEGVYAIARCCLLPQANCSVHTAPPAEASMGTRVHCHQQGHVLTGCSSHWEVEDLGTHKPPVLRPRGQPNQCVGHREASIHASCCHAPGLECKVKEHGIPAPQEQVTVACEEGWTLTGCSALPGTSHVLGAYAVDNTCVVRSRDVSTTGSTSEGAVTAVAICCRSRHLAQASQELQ
Sequence (Q8NBP7 31-152 partner limits assumed): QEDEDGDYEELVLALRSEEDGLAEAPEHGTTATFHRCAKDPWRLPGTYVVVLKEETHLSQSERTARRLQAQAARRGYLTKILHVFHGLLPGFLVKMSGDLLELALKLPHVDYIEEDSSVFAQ
Test description: PCSK9/EGF(A) TR-FRET binding assay
Condition summary: TR-FRET; Table 8E, additional compounds; read-out: PCSK9/EGF(A) IC50
Peptide text beside a SMILES is read from it. * marks the point of attachment. Propanoyl(3-indol-3-yl) = O=C(CCc1c[nH]c2ccccc12)*; Pentanoyl = CCCCC(=O)*
Form field: pIC50 (one value per entry).
Scale for pIC50: -log10 of concentration given in mol/L; no unit attached.

| Compound | Study target | pIC50 |
| --- | --- | --- |
| CCCCC(=O)N[C@@H](Cc1c[nH]c2ccccc12)C(=O)N[C@@H](CC(N)=O)C(=O)N[C@@H](CC(C)C)C(=O)N[C@H](C(=O)N[C@@H](CCCNC(=N)N)C(=O)N[C@H](C(=O)NCC(=O)N[C@@H](CC(C)C)C(=O)N[C@@H](CC(C)C)C(=O)N[C@@H](CCCNC(=N)N)C(=O)O)[C@@H](C)CC)C(C)C [Compound 152] (Pentanoyl-WNLVRIGLLR-OH) | PCSK9 (Homo sapiens) | 4.37 |

Looking up CC[C@H](C)[C@H](NC(=O)[C@H](CCCNC(=N)N)NC(=O)[C@@H](NC(=O)[C@H](CC(C)C)NC(=O)[C@H](CC(N)=O)NC(=O)[C@H](Cc1c[nH]c2ccccc12)NC(=O)CCc1c[nH]c2ccccc12)C(C)C)C(=O)NCC(=O)N[C@@H](CC(C)C)C(=O)N[C@H](C(=O)N[C@@H](CCCNC(=N)N)C(N)=O)[C@@H](C)O [Compound 189] ({Propanoyl(3-indol-3-yl)}-WNLVRIGLTR-NH2) , I found its pIC50 recorded as 4.42

###

Study target: PCSK9 (Homo sapiens)
Test description: PCSK9/EGF(A) TR-FRET binding assay
Condition summary: TR-FRET; Table 8E, additional compounds; read-out: PCSK9/EGF(A) IC50
Square brackets hold non-standard residues; d marks the D form. Peptide text beside a SMILES is read from it. * marks the point of attachment. Propanoyl(3-(3-pyridyl)) = O=C(CCc1cccnc1)*; hArg = N=C(N)NCCCC[C@H](N)C(=O)O; X11 = O=C(CCCOc1ccc(Br)cc1)*; X7 = CCc1ccc(OCCCC(=O)*)cc1; X30 = O=C(CCc1cccc(O)c1)*
Listed next: entries and their corresponding pIC50.
Keep it numeric: pIC50 is minus log10 of the concentration in mol/L.

Worked examples, 3 compounds total:
| Compound | Readout value |
| --- | --- |
| CCc1ccc(OCCCC(=O)N[C@@H](Cc2c[nH]c3ccccc23)C(=O)N[C@@H](CC(N)=O)C(=O)N[C@@H](CC(C)C)C(=O)N[C@H](C(=O)N[C@@H](CCCCNC(=N)N)C(=O)N[C@H](C(=O)NCC(=O)N[C@@H](CC(C)C)C(=O)N[C@@H](CC(C)C)C(=O)N[C@@H](CCCNC(=N)N)C(N)=O)[C@@H](C)CC)C(C)C)cc1 [Compound 210] (X7-WNLV[hArg]IGLLR-NH2) | 5.52 |
| CC[C@H](C)[C@H](NC(=O)[C@H](CCCNC(=N)N)NC(=O)[C@@H](NC(=O)[C@H](CC(C)C)NC(=O)[C@H](CC(N)=O)NC(=O)[C@H](Cc1c[nH]c2ccccc12)NC(=O)CCc1cccnc1)C(C)C)C(=O)NCC(=O)N[C@@H](CC(C)C)C(=O)N[C@@H](CC(C)C)C(=O)N[C@@H](CCCNC(=N)N)C(N)=O [Compound 138] ({Propanoyl(3-(3-pyridyl))}-WNLVRIGLLR-NH2) | 4.32 |
| CC[C@H](C)[C@H](NC(=O)[C@H](CCCCNC(=N)N)NC(=O)[C@@H](NC(=O)[C@H](CC(C)C)NC(=O)[C@H](CC(N)=O)NC(=O)[C@H](Cc1c[nH]c2ccccc12)NC(=O)CCc1cccc(O)c1)C(C)C)C(=O)NCC(=O)N[C@@H](CC(C)C)C(=O)N[C@@H](CC(C)C)C(=O)N[C@@H](CCCNC(=N)N)C(N)=O [Compound 217] (X30-WNLV[hArg]IGLLR-NH2) | 5.39 |

Kindly review the next compound as well.
Consider CC[C@H](C)[C@H](NC(=O)[C@H](CCCCNC(=N)N)NC(=O)[C@@H](NC(=O)[C@H](CC(C)C)NC(=O)[C@H](CC(N)=O)NC(=O)[C@H](Cc1c[nH]c2ccccc12)NC(=O)CCCOc1ccc(Br)cc1)C(C)C)C(=O)NCC(=O)N[C@@H](CC(C)C)C(=O)N[C@@H](CC(C)C)C(=O)N[C@@H](CCCNC(=N)N)C(N)=O [Compound 206] (X11-WNLV[hArg]IGLLR-NH2) . Its measured pIC50 is 5.74

###

Study target: PCSK9Δhelix (Homo sapiens, UniProt Q8NBP7)
Construct: Human PCSK9 construct M1-Q692 with an engineered TEV site (residue deletion Y166, R167); made in house; host or cells: CHO
Sequence (Q8NBP7 with tags, fused parts or gaps limits assumed): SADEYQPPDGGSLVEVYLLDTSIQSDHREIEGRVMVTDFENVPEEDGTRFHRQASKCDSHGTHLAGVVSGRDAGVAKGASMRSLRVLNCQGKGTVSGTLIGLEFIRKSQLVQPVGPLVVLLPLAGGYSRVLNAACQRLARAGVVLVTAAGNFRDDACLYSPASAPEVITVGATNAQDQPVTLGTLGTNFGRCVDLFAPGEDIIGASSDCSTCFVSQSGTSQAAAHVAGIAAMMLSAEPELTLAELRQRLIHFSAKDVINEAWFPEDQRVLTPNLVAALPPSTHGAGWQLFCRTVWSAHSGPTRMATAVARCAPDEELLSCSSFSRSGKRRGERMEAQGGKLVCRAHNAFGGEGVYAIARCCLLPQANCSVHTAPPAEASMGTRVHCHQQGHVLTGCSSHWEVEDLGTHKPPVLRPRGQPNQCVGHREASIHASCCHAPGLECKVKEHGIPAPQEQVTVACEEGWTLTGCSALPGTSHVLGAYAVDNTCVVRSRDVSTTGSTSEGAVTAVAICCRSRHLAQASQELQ
Sequence (Q8NBP7 31-152 partner limits assumed): as the sequence (Q8NBP7 31-152 partner limits assumed) above
Test description: PCSK9Δhelix/Ab20 TR-FRET binding assay
Condition summary: Table 10, average ±S.D. of three experiments; read-out: Ab20 IC50
Measurement kind: pIC50
For clarity, pIC50 is expressed as the negative log10 of concentration in mol/L.

| Substance | Readout value |
| --- | --- |
| Ac-WNLVRIGLLR-NH2 [Compound 53] | 4.28 |
| Ac-LMPWNLVRIGLLR-NH2 [Compound 50] | 5.44 |
| Ac-MPWNLVRIGLLR-NH2 [Compound 51] | 5.18 |

Measured pIC50 of Ac-DLMPWNLVRIGLLR-NH2 [Compound 35] : 5.10

Input Ac-PWNLVRIGLLR-NH2 [Compound 52] . Output pIC50: 4.80

###

Study target: PCSK9 (Homo sapiens)
Test description: PCSK9/EGF(A) TR-FRET binding assay
Condition summary: TR-FRET; Table 8D, disulfide-cyclized extension peptides; read-out: PCSK9/EGF(A) IC50
pIC50: −log10 of the molar value. Bridge positions count the residues as written; N and C are the ends. Square brackets hold non-standard residues; d marks the D form. Peptide text beside a SMILES is read from it.
Measurement kind: pIC50

GET /value?item= CC[C@H](C)[C@@H]1NC(=O)[C@H](CCCNC(=N)N)NC(=O)[C@H](CCC(N)=O)NC(=O)[C@H](CC(C)C)NC(=O)[C@H](CC(N)=O)NC(=O)[C@H](Cc2c[nH]c3ccccc23)NC(=O)[C@@H]2CCCN2C(=O)[C@H](CC(C)C)NC(=O)[C@H](CCCNC(=N)N)NC(=O)[C@@H](NC(C)=O)CSSC[C@@H](C(N)=O)NC(=O)[C@H](C)NC(=O)[C@H](CC(C)C)NC(=O)CNC1=O [Compound 68] (Ac-CRLPWNLQRIGLAC-NH2; disulfide 1-14) &field=pIC50 returns < 4.30

The compound listed as CC[C@H](C)[C@@H]1NC(=O)[C@H](CCCNC(=N)N)NC(=O)[C@H](CCC(N)=O)NC(=O)[C@H](CC(C)C)NC(=O)[C@H](CC(N)=O)NC(=O)[C@@H](Cc2c[nH]c3ccccc23)NC(=O)[C@@H]2CCCN2C(=O)[C@H](CC(C)C)NC(=O)[C@H](CCCNC(=N)N)NC(=O)[C@@H](NC(C)=O)CSSC[C@@H](C(N)=O)NC(=O)[C@@H]2CCCN2C(=O)[C@H](CC(C)C)NC(=O)CNC1=O [Compound 106] (Ac-CRLP[dW]NLQRIGLPC-NH2; disulfide 1-14) shows pIC50 equal to < 4.30

###

Listing of recorded IC50 by entry.
Study target: PCSK9Δhelix (Homo sapiens, UniProt Q8NBP7)
Construct: Human PCSK9 construct M1-Q692 with an engineered TEV site (residue deletion Y166, R167); made in house; host or cells: CHO
Test description: PCSK9Δhelix/Ab20 TR-FRET binding assay
Condition summary: TR-FRET; Table 8E, additional compounds; read-out: PCSK9Δhelix/Ab20 IC50
Square brackets hold non-standard residues; d marks the D form. Peptide text beside a SMILES is read from it. * marks the point of attachment. Trp(6-Me) = Cc1ccc2c(C[C@H](N)C(=O)O)c[nH]c2c1; hArg = N=C(N)NCCCC[C@H](N)C(=O)O; X36 = CC(=O)c1ccc(OCCC(=O)*)cc1; X22 = O=C(C1CC(Cc2ccccc2)C1)*; X27 = O=C(CCCN1CCOCC1)*; Pentanoyl = CCCCC(=O)*
Number only, in µM; omit the unit.

| Molecule | IC50 (µM) |
| --- | --- |
| CC[C@H](C)[C@H](NC(=O)[C@H](CCCCNC(=N)N)NC(=O)[C@@H](NC(=O)[C@H](CC(C)C)NC(=O)[C@H](CC(N)=O)NC(=O)[C@H](Cc1c[nH]c2ccccc12)NC(=O)CNC(=O)[C@@H]1CCCN1C(=O)[C@H](Cc1ccc(O)cc1)NC(=O)[C@H](CO)NC(=O)[C@H](CCC(=O)O)NC(C)=O)C(C)C)C(=O)NCC(=O)N[C@@H](CC(C)C)C(=O)N[C@@H](CC(C)C)C(=O)N[C@@H](CCCNC(=N)N)C(N)=O [Compound 231] (Ac-ESYPGWNLV[hArg]IGLLR-NH2) | 17 |

Briefly, IC50 measured for CC[C@H](C)[C@H](NC(=O)[C@H](CCCNC(=N)N)NC(=O)[C@@H](NC(=O)[C@H](CC(C)C)NC(=O)[C@H](CC(N)=O)NC(=O)[C@H](Cc1c[nH]c2ccccc12)NC(=O)C1CC(Cc2ccccc2)C1)C(C)C)C(=O)NCC(=O)N[C@@H](CC(C)C)C(=O)N[C@@H](CC(C)C)C(=O)N[C@@H](CCCNC(=N)N)C(N)=O (some centres unmarked) [Compound 144] (X22-WNLVRIGLLR-NH2) : 4

IC50 reported for this molecule CC[C@H](C)[C@H](NC(=O)[C@H](CCCCNC(=N)N)NC(=O)[C@@H](NC(=O)[C@H](CC(C)C)NC(=O)[C@H](CC(N)=O)NC(=O)[C@H](Cc1c[nH]c2ccccc12)NC(=O)CCOc1ccc(C(C)=O)cc1)C(C)C)C(=O)NCC(=O)N[C@@H](CC(C)C)C(=O)N[C@@H](CC(C)C)C(=O)N[C@@H](CCCNC(=N)N)C(N)=O [Compound 205] (X36-WNLV[hArg]IGLLR-NH2) : 0.64

Looking up CC[C@H](C)[C@H](NC(=O)[C@H](CCCNC(=N)N)NC(=O)[C@@H](NC(=O)[C@H](CC(C)C)NC(=O)[C@H](CC(N)=O)NC(=O)[C@H](Cc1c[nH]c2ccccc12)NC(=O)CCCN1CCOCC1)C(C)C)C(=O)NCC(=O)N[C@@H](CC(C)C)C(=O)N[C@H](C(=O)N[C@@H](CCCNC(=N)N)C(N)=O)[C@@H](C)O [Compound 162] (X27-WNLVRIGLTR-NH2) , I see its IC50 listed as 37

Entry CCCCC(=O)N[C@@H](Cc1c[nH]c2cc(C)ccc12)C(=O)N[C@@H](CC(N)=O)C(=O)N[C@@H](CC(C)C)C(=O)N[C@H](C(=O)N[C@@H](CCCNC(=N)N)C(=O)N[C@H](C(=O)NCC(=O)N[C@@H](CC(C)C)C(=O)N[C@H](C(=O)N[C@@H](CCCNC(=N)N)C(N)=O)[C@@H](C)O)[C@@H](C)CC)C(C)C [Compound 175] (Pentanoyl-[Trp(6-Me)]NLVRIGLTR-NH2) ; IC50 = 39
